Tested on: Plasmodium berghei
method summary: Luciferase/luciferin-expressing antifolate-resistant parasites were used to infect a culture of HepG2 cells that were pre-incubated with compounds. Infected hepatocytes emit light due to the luciferase reaction. Assay results are presented as the percent inhibition of light emission compared to control. […]
Format: functional
run conditions: sporozoite, read-out: LUCIFERASE INFECTION ASSAY - IC90
Recorded IC90 for the following compounds
measured attribute: IC90

[[record]]
compound = "Cc1ccccc1-c1ccnc2c1c(=O)[nH]c(=O)n2Cc1ccccc1"
measured_attribute = "IC90"
value_observed = "> 9.61 µM"

[[record]]
compound = "CC(=O)N(C)c1cccc(-c2cc3c(Nc4cccc(C(C)C)c4)nccc3n2C)c1"
measured_attribute = "IC90"
value_observed = "3.76 µM"

[[record]]
compound = "Cn1c2ccccc2c2ccc(CC(=O)N/N=C/c3ccccc3)cc21"
measured_attribute = "IC90"
value_observed = "> 10 µM"

[[record]]
compound = "CC(=O)NC(C)CCc1ccc(-c2csc(-c3ccc(NC(=O)C4CC4)cc3)n2)cc1 (stereo not drawn)"
measured_attribute = "IC90"
value_observed = "0.146 µM"

[[record]]
compound = "COc1cccc(-c2nc3ccc(NC(=O)Nc4cccc(C(C)=O)c4)cn3n2)c1"
measured_attribute = "IC90"
value_observed = "> 10 µM"

[[record]]
compound = "CCOc1ccc(C(C)=O)cc1CSc1nc2scc(-c3ccccc3)c2c(=O)n1C"
measured_attribute = "IC90"
value_observed = "> 10 µM"

[[record]]
compound = "FC(F)(F)c1cc(Nc2nc(-c3cc(-c4ccc(Cl)cc4Cl)no3)cs2)cc(C(F)(F)F)c1"
measured_attribute = "IC90"
value_observed = "> 6.29 µM"

[[record]]
compound = "CCc1ccccc1Nc1nc(N)nc(CN2CCN(S(=O)(=O)Cc3ccccc3)CC2)n1"
measured_attribute = "IC90"
value_observed = "> 10 µM"

[[record]]
compound = "CC(C)c1ccc(NC(=O)CSc2ncc3c(n2)CC(C)(C)CC3=O)cc1"
measured_attribute = "IC90"
value_observed = "> 8.6 µM"

[[record]]
compound = "CC(C)c1cc(C(C)C)c(S(=O)(=O)Nc2ccc(O)cc2)c(C(C)C)c1"
measured_attribute = "IC90"
value_observed = "3.98 µM"

[[record]]
compound = "O=C(NC(c1ccc(F)cc1)c1cccs1)c1cc2ccccc2o1 (stereo not drawn)"
measured_attribute = "IC90"
value_observed = "> 10 µM"

[[record]]
compound = "CC(=O)Nc1ccc(-c2cnc3ccc(-c4ccc(S(C)(=O)=O)cc4)nn23)cc1"
measured_attribute = "IC90"
value_observed = "7.89 µM"

[[record]]
compound = "NC(=S)CCOC1CCN(Cc2ccccc2)CC1"
measured_attribute = "IC90"
value_observed = "> 11.9 µM"


---

Tested on: Plasmodium berghei
method summary: Luciferase/luciferin-expressing antifolate-resistant parasites were used to infect a culture of HepG2 cells that were pre-incubated with compounds. Infected hepatocytes emit light due to the luciferase reaction. Assay results are presented as the percent inhibition of light emission compared to control. […]
Type: functional
run conditions: sporozoite, read-out: LUCIFERASE INFECTION ASSAY - IC50
measured attribute: IC50

[[record]]
entry_smiles = "O=S(=O)(Oc1cccc(C(F)(F)F)c1)c1cc(S(=O)(=O)c2ccccc2)cs1"
assayed_target = "Plasmodium berghei"
value_observed = "> 7.36 µM"

[[record]]
entry_smiles = "Cc1cccc(N2CCN(c3cc(C)nc4c(-c5ccccc5)c(C)nn34)CC2)n1"
assayed_target = "Plasmodium berghei"
value_observed = "> 8.28 µM"

[[record]]
entry_smiles = "O=C(Nc1ccc(Cl)c(C(F)(F)F)c1)c1[nH]nc2ccccc12"
assayed_target = "Plasmodium berghei"
value_observed = "> 10 µM"

[[record]]
entry_smiles = "O=C(CSc1nc2cc(S(=O)(=O)Nc3ccccc3Cl)ccc2o1)NCc1ccccc1"
assayed_target = "Plasmodium berghei"
value_observed = "> 10 µM"

[[record]]
entry_smiles = "COc1cccc(-c2csc(-c3nnc4n3-c3ccccc3SC4)n2)c1"
assayed_target = "Plasmodium berghei"
value_observed = "2.69 µM"

